Please go through the items and note down their pIC50.
# Target Of Assay: hNav 1.7 (Homo sapiens (Human), UniProt Q15858)
# Sequence (Q15858 whole entry): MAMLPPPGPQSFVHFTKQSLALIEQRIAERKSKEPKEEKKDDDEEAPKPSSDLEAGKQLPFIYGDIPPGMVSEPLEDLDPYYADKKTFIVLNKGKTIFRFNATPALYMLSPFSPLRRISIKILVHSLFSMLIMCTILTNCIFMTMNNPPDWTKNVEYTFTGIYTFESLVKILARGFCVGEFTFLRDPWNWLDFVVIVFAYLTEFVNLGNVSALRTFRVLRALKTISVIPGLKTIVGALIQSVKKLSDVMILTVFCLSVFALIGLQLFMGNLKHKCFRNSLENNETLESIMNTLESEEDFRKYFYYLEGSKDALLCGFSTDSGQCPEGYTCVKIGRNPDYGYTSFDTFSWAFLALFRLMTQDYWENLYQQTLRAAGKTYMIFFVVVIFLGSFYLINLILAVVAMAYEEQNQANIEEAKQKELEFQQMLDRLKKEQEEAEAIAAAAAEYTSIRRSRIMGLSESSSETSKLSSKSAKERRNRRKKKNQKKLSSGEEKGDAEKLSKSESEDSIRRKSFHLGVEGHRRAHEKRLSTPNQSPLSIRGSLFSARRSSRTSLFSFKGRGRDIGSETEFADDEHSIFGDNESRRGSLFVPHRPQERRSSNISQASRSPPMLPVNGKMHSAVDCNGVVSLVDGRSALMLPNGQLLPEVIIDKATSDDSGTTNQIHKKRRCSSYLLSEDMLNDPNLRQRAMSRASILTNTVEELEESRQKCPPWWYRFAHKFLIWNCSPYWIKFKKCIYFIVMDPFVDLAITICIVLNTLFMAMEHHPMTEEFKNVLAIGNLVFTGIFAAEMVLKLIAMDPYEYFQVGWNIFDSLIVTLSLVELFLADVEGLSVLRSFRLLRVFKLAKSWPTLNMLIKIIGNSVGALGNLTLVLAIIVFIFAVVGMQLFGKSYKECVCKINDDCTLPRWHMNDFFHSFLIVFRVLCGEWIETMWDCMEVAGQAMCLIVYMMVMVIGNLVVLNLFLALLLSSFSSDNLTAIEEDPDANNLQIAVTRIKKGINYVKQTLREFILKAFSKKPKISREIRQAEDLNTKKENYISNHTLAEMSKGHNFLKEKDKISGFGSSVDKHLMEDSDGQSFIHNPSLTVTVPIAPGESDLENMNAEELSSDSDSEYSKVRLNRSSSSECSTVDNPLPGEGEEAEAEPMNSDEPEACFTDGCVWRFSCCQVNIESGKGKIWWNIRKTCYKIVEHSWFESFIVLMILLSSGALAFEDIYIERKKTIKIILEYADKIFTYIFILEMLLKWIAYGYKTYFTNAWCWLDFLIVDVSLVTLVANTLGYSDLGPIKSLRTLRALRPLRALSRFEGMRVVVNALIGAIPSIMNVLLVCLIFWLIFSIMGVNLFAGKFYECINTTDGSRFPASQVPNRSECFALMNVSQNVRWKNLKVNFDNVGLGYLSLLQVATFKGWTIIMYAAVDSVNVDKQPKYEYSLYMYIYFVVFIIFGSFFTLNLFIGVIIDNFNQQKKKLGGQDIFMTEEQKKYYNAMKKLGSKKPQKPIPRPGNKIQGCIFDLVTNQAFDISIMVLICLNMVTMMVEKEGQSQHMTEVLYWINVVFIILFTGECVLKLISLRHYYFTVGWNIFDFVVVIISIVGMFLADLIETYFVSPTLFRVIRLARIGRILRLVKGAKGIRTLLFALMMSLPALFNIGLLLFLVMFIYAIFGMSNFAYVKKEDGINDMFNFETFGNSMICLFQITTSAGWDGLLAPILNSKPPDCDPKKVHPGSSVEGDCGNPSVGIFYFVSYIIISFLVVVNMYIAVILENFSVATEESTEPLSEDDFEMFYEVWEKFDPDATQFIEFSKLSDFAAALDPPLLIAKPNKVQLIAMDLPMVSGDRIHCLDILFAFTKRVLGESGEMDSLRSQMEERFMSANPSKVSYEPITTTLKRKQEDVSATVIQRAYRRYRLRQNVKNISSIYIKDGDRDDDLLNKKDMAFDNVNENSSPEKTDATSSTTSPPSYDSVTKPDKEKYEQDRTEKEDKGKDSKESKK
# Sequence (Q07699 19-218 partner): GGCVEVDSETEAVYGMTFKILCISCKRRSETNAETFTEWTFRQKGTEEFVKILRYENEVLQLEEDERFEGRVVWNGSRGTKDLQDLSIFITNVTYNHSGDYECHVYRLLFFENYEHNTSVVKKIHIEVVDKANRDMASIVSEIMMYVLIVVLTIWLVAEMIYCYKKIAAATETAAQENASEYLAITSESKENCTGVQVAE
# Sequence (O60939 30-215 partner): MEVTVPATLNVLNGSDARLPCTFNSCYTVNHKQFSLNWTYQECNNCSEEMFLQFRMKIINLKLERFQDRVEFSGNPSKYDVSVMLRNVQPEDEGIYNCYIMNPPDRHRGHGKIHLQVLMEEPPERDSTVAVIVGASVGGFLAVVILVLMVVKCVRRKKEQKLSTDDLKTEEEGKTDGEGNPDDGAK
# Assay Name: Electrophysiological evaluation, automated patch clamp IonWorks Quattro (Population Patch Clamp mode)
# Test Settings: HEK293A cells stably expressing hNav 1.7/β1/β2; response to second depolarization pulse, pre-pulse potential set to V1/2; read-out: hNav1.7 IC50
Answers are plain numbers, as −log10 of the molar value.

Example cases with answers are listed next.
Cn1nccc1[C@H]1CCC[C@@H]1Oc1ccc(S(=O)(=O)Nc2ccncn2)c(F)c1 [Example 124] :: 5.62
Cn1nccc1[C@H]1CCCC[C@@H]1Oc1cc(F)c(S(=O)(=O)Nc2nncs2)cc1Cl (relative stereo) :: 7.44
CCn1nccc1[C@H]1CCCC[C@@H]1Oc1cc(F)c(S(=O)(=O)Nc2cscn2)cc1Cl (relative stereo) :: 6.92
Cn1nccc1[C@H]1CCC[C@@H]1Oc1cc(F)c(S(=O)(=O)Nc2ccncn2)cc1C#N (relative stereo) :: 6.92
CC(=O)Nc1n[nH]cc1[C@H]1CCCC[C@@H]1Oc1cc(F)c(S(=O)(=O)Nc2ccncn2)cc1C (relative stereo) :: 6.60

Count: 5. Required value per item: pIC50.
1. Cn1nccc1[C@H]1CC(F)(F)C[C@@H]1Oc1cc(F)c(S(=O)(=O)Nc2ccncn2)cc1F (relative stereo)
2. CCn1nccc1[C@@H]1CCC[C@H]1Oc1ccc(S(=O)(=O)Nc2ccncn2)c(F)c1F
3. CCn1nccc1[C@H]1CCC[C@@H]1Oc1ccc(S(=O)(=O)Nc2ccncn2)c(F)c1 (relative stereo)
4. Cc1cc(S(=O)(=O)Nc2ccncn2)c(F)cc1O[C@H]1CCC[C@@H]1c1cn[nH]c1 (relative stereo)
5. Cc1cc(S(=O)(=O)Nc2ccncn2)c(F)cc1O[C@H]1CCC(F)(F)C[C@@H]1c1ccn[nH]1 (relative stereo)

Reply:
1: 7.38; 2: 4.68; 3: 6.24; 4: 6.74; 5: 7.30

Count: 6. Required value per item: pIC50.
1. Cn1nccc1[C@H]1CCC[C@@H]1Oc1ccc(S(=O)(=O)Nc2ccnc(F)n2)c(F)c1 (relative stereo)
2. Cn1nccc1[C@H]1CCC[C@@H]1Oc1cc(F)c(S(=O)(=O)Nc2nncs2)cc1Cl (relative stereo)
3. Cn1nccc1[C@H]1CCC(C)(C)C[C@@H]1Oc1cc(F)c(S(=O)(=O)Nc2ccncn2)cc1F (relative stereo)
4. O=S(=O)(Nc1ccncn1)c1c(F)cc(O[C@H]2CCC[C@@H]2c2ccn[nH]2)cc1F (relative stereo)
5. Cn1nccc1[C@H]1CCCCC[C@@H]1Oc1cc(F)c(S(=O)(=O)Nc2ncns2)cc1F (relative stereo)
6. Cc1cc(S(=O)(=O)Nc2ccncn2)c(F)cc1O[C@H]1CCC[C@@H]1c1ccn[nH]1 (relative stereo) [Example 138]

Reply:
7.11
6.55
7.44
7.46
7.85
7.62

---

# Target Of Assay: hNav 1.7 (Homo sapiens (Human), UniProt Q15858)
# Assay Name: Electrophysiological evaluation, automated patch clamp IonWorks Quattro (Population Patch Clamp mode)
# Assay type: cell-based
# Test Settings: HEK293A cells stably expressing hNav 1.7/β1/β2; response to second depolarization pulse, pre-pulse potential set to V1/2; read-out: hNav1.7 IC50
Measured Quantity: log10 IC50 (log10 of the value in nM)
# log10 transformed; quantity=IC50; unit=nM

Example cases with answers are listed next.
Cc1cc(S(=O)(=O)Nc2ccncn2)c(F)cc1O[C@H]1CC(F)(F)CC[C@@H]1c1ccnn1C (relative stereo) [Example 90] :: 1.95
Cc1cc(S(=O)(=O)Nc2ccncn2)c(F)cc1O[C@H]1CC(F)(F)CC[C@@H]1c1ccnn1C [Example 137] :: 1.48

Count: 2. Required value per item: log10 IC50.
1. CCn1nccc1[C@H]1CCCC[C@@H]1Oc1cc(F)c(S(=O)(=O)Nc2ccncn2)cc1F (relative stereo)
2. Cc1cc(S(=O)(=O)Nc2ccncn2)c(F)cc1O[C@H]1CCCC[C@@H]1c1cn[nH]c1 (relative stereo) [Example 81]

Reply:
1. 1.66
2. 2.18

Count: 5. Required value per item: log10 IC50.
1. O=S(=O)(Nc1ccncn1)c1cc(F)c(O[C@H]2CCCC[C@@H]2c2cn[nH]c2)cc1F (relative stereo)
2. O=S(=O)(Nc1ccncn1)c1cc(Cl)c(O[C@H]2CC(F)(F)CC[C@@H]2c2ccn[nH]2)cc1F (relative stereo)
3. Cc1cc(S(=O)(=O)Nc2ccncn2)c(F)cc1O[C@H]1CC(F)(F)CC[C@@H]1c1ccn[nH]1 (relative stereo)
4. Cn1nccc1[C@H]1CCCCC[C@@H]1Oc1cc(F)c(S(=O)(=O)Nc2ccncn2)cc1Cl (relative stereo)
5. Cn1nccc1[C@H]1C[C@@H](OCc2ccccc2)C[C@@H]1Oc1cc(F)c(S(=O)(=O)Nc2ccncn2)cc1F (relative stereo)

Reply:
[2.48, 1.61, 1.45, 1.57, 1.53]

---

# Target Of Assay: hNav 1.7 (Homo sapiens (Human))
# Assay Name: Electrophysiological evaluation, automated patch clamp IonWorks Quattro (Population Patch Clamp mode)
# Format: cell-based
# Test Settings: HEK293A cells stably expressing hNav 1.7/β1/β2; response to second depolarization pulse, pre-pulse potential set to V1/2; read-out: hNav1.7 IC50
Please go through the items and note down their log10 of IC50.
# log10 transformed; quantity=IC50; unit=nM

O=S(=O)(Nc1ccncn1)c1ccc(O[C@H]2CC(F)(F)CC[C@@H]2c2cn[nH]c2)cc1F (relative stereo) [Example 147] :: 2.78

Count: 7. Required value per item: log10 of IC50.
1. Nc1n[nH]cc1[C@H]1CCCC[C@@H]1Oc1cc(F)c(S(=O)(=O)Nc2cscn2)c(F)c1 (relative stereo) [Example 116]
2. CCn1nccc1[C@H]1CCCC[C@@H]1Oc1cc(F)c(S(=O)(=O)Nc2ccncn2)c(F)c1 (relative stereo) [Example 59]
3. O=S(=O)(Nc1ccncn1)c1cc(F)c(O[C@H]2CC(F)(F)CC[C@@H]2c2cn[nH]c2)cc1F (relative stereo) [Example 103]
4. Cn1nccc1[C@H]1CCCC[C@@H]1Oc1cc(F)c(S(=O)(=O)Nc2cscn2)cc1Cl (relative stereo) [Example 10]
5. CCn1nccc1[C@H]1CCCC[C@@H]1Oc1ccc(S(=O)(=O)Nc2ccncn2)c(F)c1 (relative stereo) [Example 45]
6. O=S(=O)(Nc1ncns1)c1cc(F)c(O[C@H]2CCCCC[C@@H]2c2ccccc2)cc1F (relative stereo) [Example 7]
7. O=S(=O)(Nc1ccncn1)c1c(F)cc(O[C@H]2CCCC[C@@H]2c2cn[nH]c2)cc1F (relative stereo) [Example 94]

Reply:
1: 2.23; 2: 1.49; 3: 2.51; 4: 1.48; 5: 2.28; 6: 2.65; 7: 2.08

Count: 8. Required value per item: log10 of IC50.
1. Cn1nccc1[C@H]1CCC[C@@H]1Oc1ccc(S(=O)(=O)Nc2cc(F)ncn2)cc1F (relative stereo) [Example 17]
2. CCn1nccc1[C@H]1CCCC[C@@H]1Oc1ccc(S(=O)(=O)Nc2ccncn2)c(F)c1F (relative stereo) [Example 41]
3. O=S(=O)(Nc1ccncn1)c1ccc(O[C@H]2CCCC[C@@H]2c2cn[nH]c2)cc1F (relative stereo) [Example 108]
4. Cn1nccc1[C@H]1CCC(F)(F)C[C@@H]1Oc1cc(F)c(S(=O)(=O)Nc2ccncn2)cc1F [Example 102]
5. Nc1cc([C@H]2CCC[C@@H]2Oc2cc(F)c(S(=O)(=O)Nc3ccncn3)cc2F)ccn1 (relative stereo) [Example 36]
6. CCc1cc(S(=O)(=O)Nc2ccncn2)c(F)cc1O[C@H]1CCC[C@@H]1c1ccnn1C (relative stereo) [Example 61]
7. Cc1cc(S(=O)(=O)Nc2ccncn2)c(F)cc1O[C@H]1CC(F)(F)CC[C@@H]1c1cn[nH]c1 [Example 143]
8. Cn1nccc1[C@H]1CCC[C@@H]1Oc1ccc(S(=O)(=O)Nc2ccnc(F)n2)cc1F (relative stereo) [Example 18]

Reply:
1: 2.71; 2: 2.20; 3: 3.23; 4: 1.56; 5: 2.70; 6: 0.41; 7: 1.32; 8: 2.23

Count: 2. Required value per item: log10 of IC50.
1. Cn1nccc1[C@H]1CC(C)(C)C[C@@H]1Oc1cc(F)c(S(=O)(=O)Nc2ccncn2)cc1F (relative stereo) [Example 93]
2. Cn1nccc1[C@H]1CC(F)(F)CC[C@@H]1Oc1cc(F)c(S(=O)(=O)Nc2ccncn2)c(F)c1 (relative stereo) [Example 129]

Reply:
1.81
2.00

Query: Supply log10 of IC50 measured with hNav 1.7 (Homo sapiens (Human)) for O=S(=O)(Nc1ccncn1)c1cc(Cl)c(O[C@H]2CC(F)(F)CC[C@@H]2c2cn[nH]c2)cc1F (relative stereo) [Example 152] .
Reply: 1.23
